# assay.target: Mitogen-activated protein kinase 14 (Homo sapiens)
# Sequence (Q16539 whole entry): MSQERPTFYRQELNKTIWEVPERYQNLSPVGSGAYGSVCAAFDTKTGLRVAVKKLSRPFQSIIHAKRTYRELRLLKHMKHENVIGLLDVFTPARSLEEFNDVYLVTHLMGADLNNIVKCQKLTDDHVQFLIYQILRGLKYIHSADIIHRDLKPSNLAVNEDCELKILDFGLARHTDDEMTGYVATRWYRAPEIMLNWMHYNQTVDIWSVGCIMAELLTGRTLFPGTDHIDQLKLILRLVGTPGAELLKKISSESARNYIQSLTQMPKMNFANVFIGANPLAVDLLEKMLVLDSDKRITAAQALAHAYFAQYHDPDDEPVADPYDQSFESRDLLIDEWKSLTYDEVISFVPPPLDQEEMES
# experimental.protocol: Inhibition of human p38 alpha
pIC50: −log10 of the molar value.
property.measured: pIC50

Check out these entries, answers already filled in.
{"compound.string": "O=C1Nc2cc(CN3CCOCC3)ccc2CN1c1csc(-c2ccncc2)n1", "pIC50": "< 5.00"}
{"compound.string": "O=C1Nc2ccccc2CN1c1csc(-c2ccncc2)n1", "pIC50": "< 5.00"}

Here's the next entry for you.
## Input Given the entry O=C1Nc2cc(F)ccc2CN1c1csc(-c2ccncc2)n1 , report its measured pIC50.
## Output < 5.00

---

# assay.target: Cyclin-dependent kinase 5/CDK5 activator 1 (Homo sapiens, UniProt Q00535)
# Sequence (Q00535 whole entry): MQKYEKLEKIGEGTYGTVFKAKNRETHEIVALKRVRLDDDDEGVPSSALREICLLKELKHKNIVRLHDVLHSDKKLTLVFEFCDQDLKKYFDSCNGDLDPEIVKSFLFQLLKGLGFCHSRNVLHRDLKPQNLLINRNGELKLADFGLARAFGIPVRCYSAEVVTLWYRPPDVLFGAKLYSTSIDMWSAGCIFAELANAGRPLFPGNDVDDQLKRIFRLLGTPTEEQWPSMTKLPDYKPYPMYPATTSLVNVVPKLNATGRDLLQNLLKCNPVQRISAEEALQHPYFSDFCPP
# Sequence (Q15078 whole entry, further chain): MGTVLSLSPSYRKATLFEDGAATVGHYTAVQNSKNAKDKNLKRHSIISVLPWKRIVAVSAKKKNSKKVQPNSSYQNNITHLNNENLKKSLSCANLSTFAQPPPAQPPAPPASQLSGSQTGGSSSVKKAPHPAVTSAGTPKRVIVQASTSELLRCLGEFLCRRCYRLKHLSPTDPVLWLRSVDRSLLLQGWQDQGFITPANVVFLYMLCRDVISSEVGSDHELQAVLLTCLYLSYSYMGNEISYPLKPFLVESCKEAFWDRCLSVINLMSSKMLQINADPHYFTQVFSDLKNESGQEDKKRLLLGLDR
# experimental.protocol: Inhibition of human CDK5/p25 by HTRF assay
# Type: protein-complex assay
# maps each entry to its IC50

Check out these entries, answers already filled in.
{"compound.string": "O=C1Nc2ccccc2CN1c1ccc(-c2ccncc2)s1", "assay.target": "Cyclin-dependent kinase 5/CDK5 activator 1 (Homo sapiens, UniProt Q00535)", "IC50": "> 10 µM"}
{"compound.string": "O=C1Nc2ccccc2CN1c1cccc(-c2ccncc2)c1", "assay.target": "Cyclin-dependent kinase 5/CDK5 activator 1 (Homo sapiens, UniProt Q00535)", "IC50": "> 10 µM"}

Here's the next entry for you.
## Input Given the entry O=C1Nc2ccccc2CN1c1nc(-c2ccncc2)no1 , report its measured IC50.
## Output > 10 µM
